molecular target: Propionibacterium acnes (P. acnes) whole cells, surface antigen not identified (Propionibacterium acnes); assay: mono-scFv-phage ELISA on whole P. acnes
Readout type: O.D. 450 nm (O.D. 450 nm)
Reply numerically in O.D. 450 nm, unit not repeated.

1. mono-scFv-phage No. 8 (scFv, V domains shown) VH: QVQLVQSGGGVVQPGGSLRLSCAASGFSFNDYAMHWVRQVPGKGLEWVSSISWNSRSTVYAASVEGRFSISRDNSKNSLYLQMNSLRAEDAAVYYCTTDLGVVPAAIYAFDIWGQGTMVTVSS VL: DIQMTQSPSVMSASVGDRVNITCRASQGITNWLAWYQQKPGKAPKLLISAASSLQSGVPSRFSGSGSGTDFTLTISSLQPDDFATYYCQQTATFQITFGQGTRLDIK ... 1.82

Which O.D. 450 nm reading was recorded for the binder mono-scFv-phage No. 10 (scFv, V domains shown) VH: QVQLVESGGGLIQPGGSLRLSCVASGFTVSSSFMSWVRLAPGKGLEWVALAYSGGNTYYADSVKGRFTVSRDDSSNTLYLQMNSLRAEDTAVYYCSCEGKAVSGSRDLHFEFWSPGTLVTVSS VL: SYELTQAPSLSVSPGQTANIICSGDNLRTKYVSWYQQKPGQAPVLVIYNDNDRPSGIPERFSGTNSGNTAALTISRVEAGDEADYYCQVWDSSSDHLIFGGGTKLTVL ?
1.81

Requested field: O.D. 450 nm. Item: mono-scFv-phage No. 6 (scFv, V domains shown) VH: QVQLVESGGGVVRPGGSLRLSCTASGFTFDDHGMSWVRQAPGKGLEWVSTINLNGGSTAYADSVKGRFTISRDNAKNSLYLQMNSLRAEDTAVYYCSTRHLHHWGQGTLVTVSS VL: DIVMTQTPLSSPVTLGQPASISCRSSQSLVHSNGNTYLTWLQQRPGQPPRLLIHKISNRFSGVPDRFSGSGAGTDFTLKISRVEAEDVGVYYCVQAKQFPLTFGQGTRLEIK
1.95

Recorded O.D. 450 nm for mono-scFv-phage No. 3 (scFv, V domains shown) VH: QMQLVQSGAEVKKPGASVKVSCKASGYTFTDYYIHWVRQAPGQGLEWMGWINPNSGAPEFAQRFQGRVSMTRDASINTTYMELSGLRSEDTAVYYCVKGLEHAAGSAIFDRWGQGTMVTVSS VL: QTVVTQEPSFSVSPGGTVTLTCGLTSGSVSTSHFPSWYQQTPGQAPRTLIYFKDTRSSGVPDRFSGSILGNKAALTITGAQADDESDYYCALSMGSGIWVFGGGTKLTVL , please?
3.36

Values from patent US20190224101A1
